- RUN DESCRIPTION: binders of probe aFST on microarray, primary screen, stem cell growth factor project, biochemical, small-molecule microarray, fluorescence 635/667 (AID 1086);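 note: score merges 667 nm fluorescence with signal-to-noise of each printed compound spot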
- CONDITION INFO: higher = more signal
Class Y: composite z-score at least 0.6. Class N: composite z-score below 0.6.

compound=COC(=O)c1c(CC[C@@H](CO)NC(=O)N[C@@H](C)Cn2cc(C3(O)CCCCC3)nn2)oc(C(C)=O)c1C(=O)OC classification=Y
compound=COCCCNC(=O)[C@@]1(Cc2ccccc2N=[N+]=[N-])N=C(c2ccc(OCCCO)cc2)O[C@H]1c1ccccc1N=[N+]=[N-] classification=Y
compound=C=CC[C@@]1(C(=O)N(C)C)N=C(c2ccc(OCCCO)cc2)O[C@@H]1c1ccccc1N=[N+]=[N-] classification=Y
compound=Cc1ccc(S[C@]2(C(=O)NC(C)C)CC(=O)N(Cc3ccccc3Cl)[C@@H]2c2ccc(CO)cc2I)cc1 classification=N
compound=CCCCC(=C=CC[C@@H](O)c1ccccc1OCCO)CCO classification=N
compound=CCOC(=O)C[C@H]1[C@H](OC(=O)Cc2ccc3c(c2)OCO3)[C@@H](NC(=O)c2ccc(-c3ccccc3)cc2)c2cc(OCCCO)ccc2N1C(=O)c1ccc2ccccc2n1 classification=N
compound="O=C(C1N=C(c2ccc(OCCCO)cc2)N(c2ccccc2)O1)N1CCOCC1 (centres undefined)" classification=Y
compound=C=CCOC(=O)[C@H]1[C@@H]2C(=O)O[C@@H](c3ccccc3)[C@@H](c3ccccc3)N2[C@@H](c2ccc(OCCOC(=O)[C@H]3C[C@H]4C(=O)N5CCC[C@H]5C(=O)N4[C@H]3c3ccc(O)cc3)cc2)[C@]12C(=O)Nc1ccc(I)cc12 classification=Y
compound=O=C1O[C@H](c2ccccc2)[C@H](c2ccccc2)N2[C@H]1[C@@H](C(=O)O)[C@]1(C(=O)Nc3ccc(C#CCCO)cc31)[C@H]2c1ccc(O)cc1 classification=N
compound=CN(C)CCCC[C@@H]1NC(=O)[C@H]2C[C@@H](C(=O)NCCCCCNC(=O)CS)[C@@H](c3cccc(OCCO)c3)N2C1=O classification=N
compound="CN1C(=O)C2C=CC(C(O)c3ccccc3)N(Nc3ccccc3)C2C1=O (centres undefined)" classification=N
compound="CCCCCC1=C2CNC(CCC)(C(=O)OC)C=C2C(C)C1=O (centres undefined)" classification=N
compound=COc1ccc(C(=O)Nc2ccc(CN3C(=O)[C@@]4(O[C@@H](CCO)[C@H]([Si](C)(C)c5ccc(OC)cc5)[C@H]4C)c4ccccc43)cc2)cc1 classification=N
compound=C[C@@H]1ON(c2cccc(C(=O)OC(C)(C)C)c2)[C@H](c2ccc(Br)cc2)[C@H]1C(=O)N1C(=O)OC[C@H]1Cc1ccccc1 classification=Y
compound=COc1ccc(CCN2C(=O)[C@@]3(c4ccc([N+](=O)[O-])cc4)CC(=O)N(C4CCCCC4)[C@@H]3c3ccc(CO)cc32)cc1 classification=N
compound="COc1ccc(C(O)C2C=CC3C(=O)N(C)C(=O)C3N2N2CCCCC2)c2ccccc12 (centres undefined)" classification=Y
compound=COc1ccc([Si](C)(C)[C@H]2[C@H](CC(=O)N3Cc4ccccc4C[C@H]3CO)O[C@@]3(C(=O)N(Cc4ccc(N5CCC5=O)cc4)c4ccccc43)[C@@H]2C)cc1 classification=Y
compound=[N-]=[N+]=Nc1ccccc1C[C@]1(C(N)=O)N=C(c2ccc(OCCCO)cc2)O[C@H]1c1ccccc1 classification=Y
compound=O=C(NCc1ccccc1)[C@@]1(Cc2ccccc2)N=C(c2ccc(OCCCO)cc2)O[C@H]1c1ccccc1 classification=Y
compound="O=C1NC(=O)C2C1C=CC(C(O)c1cccc3ccccc13)N2Nc1ccccn1 (centres undefined)" classification=N
compound=CCOC(=O)[C@H]1C/C=C/C[C@H](C(=O)OCC)C(=O)O[C@H]2[C@@H](OC)O[C@H](CO)[C@@H](OC(=O)Nc3ccc(C#N)cc3)[C@@H]2OC1=O classification=N
compound=COC(=O)[C@@]1(Cc2ccc(F)cc2)[C@H]2c3cc(C(=O)N(C)C)n(Cc4ccc(S(C)(=O)=O)cc4)c3C[C@H]2CN1C(=O)c1ccccc1 classification=N
compound=C=C(/C(=C/C[C@@H](OC(C)=O)c1ccc(OCCO)cc1)c1cnc2ccccc2c1)C(C)C classification=N
compound="COc1cc2c(cc1O)C(C1CC1)N(Cc1cc3c(cc1Br)OCO3)CC2 (centres undefined)" classification=N
compound=COCCn1c(C(=O)N2CCCC2)cc2c1C[C@H]1CN(C(=O)c3ccccc3)[C@@](Cc3ccc(F)cc3)(C(=O)OC)[C@@H]21 classification=Y
compound=CC(C)(C)OC(=O)CC[C@@]1(C(N)=O)N=C(c2ccc(OCCCO)cc2)O[C@@H]1c1ccccc1 classification=Y
compound=O=C1O[C@@H](c2ccccc2)[C@@H](c2ccccc2)N2[C@@H](c3ccccc3OCCO)[C@]3(C(=O)Nc4ccc(C#CC5=CCCCC5)cc43)[C@@H](C(=O)Nc3nc4ccccc4s3)[C@H]12 classification=N
compound="O=C1C2C=CC(C(O)C3CCCCC3)N(Nc3ccc([N+](=O)[O-])cc3)C2C(=O)N1c1ccccc1 (centres undefined)" classification=N
compound=C#CCN(CC1=CCCCC1)[C@H](c1ccccc1Br)[C@@H](O)Cc1ccccc1 classification=N
